Experiment: toxicity, Irwin's test
Assay type: in vivo
Settings: i.p.; death of two animals out of three within 48 hours
measured_property: Lethal dose (mg/kg)
Express the result in mg/kg but write the number alone.

Lethal dose reading for O=C1CN(c2nc(NC3CC3)nc(C3CC3)n2)C1 [Compound 17] : 281.5

Lethal dose reading for [O-][S+]1CCN(c2nc(NC3CC3)nc(C3CC3)n2)CC1 [Compound 19] : 175.6

Lethal dose reading for CCCc1nc(NC2CC2)nc(N(CCO)CCO)n1 [Compound 6] : 635.6

Lethal dose reading for OCCN(CCO)c1nc(NC2CC2)nc(C2CC2)n1 [Compound 7] : 279.3

Lethal dose reading for CCCc1nc(NC2CC2)nc(N2CCC(O)CC2)n1 [Compound 5] : 277.4

Note: attention shifts to another entry.
Lethal dose reading for CC1CC1c1nc(NC2CC2)nc(N2CCOCC2)n1.Cl (stereo not drawn) [Compound 25] : 99.7

* * *

System: anaphylactic release of histamine, guinea-pig lung sections
Test: inhibition of the anaphylactic release of histamine (proper effect)
Assay type: cell-based, Dunkin-Hartley guinea-pigs
Conditions: Cavia porcellus, in vitro, read-out: Minimum inhibitory dose (MID)
Measured minimal effective concentration by item
State the value, then name its unit.

Would you please look over these solved cases?
minimal effective concentration reading for CCCc1nc(NC2CC2)nc(N2CC3CCC(C2)O3)n1 : 1 µM

minimal effective concentration reading for Cc1nc(NC2CC2)nc(N2CC3CCC(C2)O3)n1.Cl [Compound 9, hydrochloride] : 3.2 µM

minimal effective concentration reading for O=S1(=O)CCN(c2nc(NC3CC3)nc(C3CC3)n2)C1 : 0.1 µM

minimal effective concentration reading for CCCc1nc(NC2CC2)nc(N(CCO)CCO)n1 : 1 µM

minimal effective concentration reading for OC1CN(c2nc(NC3CC3)nc(C3CC3)n2)C1 : 1 µM

minimal effective concentration reading for C1CC1Nc1nc(C2CC2)nc(N2CC3CCC(C2)O3)n1 : 0.1 µM

minimal effective concentration reading for C1CN(c2nc(NC3CC3)nc(C3CC3)n2)CS1 : 0.1 µM

minimal effective concentration reading for C1CN(c2nc(NC3CC3)nc(C3CC3)n2)CCO1.Cl [Compound 3, hydrochloride] : 0.032 µM

minimal effective concentration reading for CC(C)c1nc(NC2CC2)nc(N2CC3CCC(C2)O3)n1 : 0.1 µM

Note: attention shifts to another entry.
minimal effective concentration reading for O=S1(=O)CCN(c2nc(NC3CC3)nc(C3CC3)n2)CC1 : 1 µM

* * *

Tested on: plantar edema induced by immune complexes
Experiment: "reverse passive Arthus" (RPA) test, anti-inflammatory and anti-edema activity
Type: in vivo, Sprague-Dawley rat
Details: Rattus norvegicus; intravenous; 5 hours after induction of the Arthus reaction; read-out: Dose (ID30), 5 hours
Procedure: The reaction between a soluble antigen and antibodies in the organism may lead to an acute inflammatory reaction accompanied by release of histamine, modification of vascular permeability and formation of a localized edema. […] The volume of the paw is measured by plethysmometry before the Arthus reaction and 3 to 5 hours after induction of the Arthus reaction, both in the control animals and in the treated animals. […]
Measured ED30 by item
Express the result in µmol/kg but write the number alone.

Would you please look over these solved cases?
ED30 reading for CCc1nc(NC2CC2)nc(N2CCOCC2)n1 [Compound 2] : 0.7

ED30 reading for CCCc1nc(NC2CC2)nc(N2CC3CCC(C2)O3)n1 [Compound 11] : 0.4

ED30 reading for Cc1nc(NC2CC2)nc(N2CC3CCC(C2)O3)n1.Cl [Compound 9, hydrochloride] : 4.4

Next:
ED30 reading for C1CC(c2nc(NC3CC3)nc(N3CCOCC3)n2)C1 [Compound 4] : 10

ED30 reading for COC1CN(c2nc(NC3CC3)nc(C3CC3)n2)C1 [Compound 14] : 12

ED30 reading for OC1CN(c2nc(NC3CC3)nc(C3CC3)n2)C1 [Compound 13] : 4

ED30 reading for C1CN(c2nc(NC3CC3)nc(C3CC3)n2)CCS1 [Compound 18] : 1
